assayTarget: BCL-XL (UniProt Q07817 1-209)
Sequence (Q07817 1-209): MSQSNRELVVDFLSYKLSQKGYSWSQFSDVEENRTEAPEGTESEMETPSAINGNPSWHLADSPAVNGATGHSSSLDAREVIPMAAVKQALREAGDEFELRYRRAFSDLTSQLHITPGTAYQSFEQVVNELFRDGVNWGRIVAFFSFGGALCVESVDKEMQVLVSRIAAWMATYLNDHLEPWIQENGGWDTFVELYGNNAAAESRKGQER
procedureText: Ki table, method not stated
Positions of bridges follow the written chain, without caps; N, C: chain ends. Non-standard residues stand in square brackets, D forms with d. R8 = C=CCCCCCC[C@@](C)(N)C(=O)O; S5 = C=CCCC[C@](C)(N)C(=O)O
resultType: Ki
Respond with a number, then the unit of measure.

# Ki of Ac-IAQALR[R8]IADAFN[S5]YYA-NH2 (staple 7-14; SMILES CC[C@H](C)[C@H](NC(C)=O)C(=O)N[C@@H](C)C(=O)N[C@@H](CCC(N)=O)C(=O)N[C@@H](C)C(=O)N[C@@H](CC(C)C)C(=O)N[C@@H](CCCNC(=N)N)C(=O)N[C@]1(C)CCCCCCC=CCCC[C@@](C)(C(=O)N[C@@H](Cc2ccc(O)cc2)C(=O)N[C@@H](Cc2ccc(O)cc2)C(=O)N[C@@H](C)C(N)=O)NC(=O)[C@H](CC(N)=O)NC(=O)[C@H](Cc2ccccc2)NC(=O)[C@H](C)NC(=O)[C@H](CC(=O)O)NC(=O)[C@H](C)NC(=O)[C@H]([C@@H](C)CC)NC1=O, also called Ac-IAQALR$r8IADAFN$YYA-NH2) [SEQ ID NO: 1638] = 243 nM

# next binder below
# Ki of IWIAQALXAIGDAFNAYYA (Ac- at N-terminus; -NH2 at C-terminus; $r8 at 9 and $ at 16 joined by all-carbon crosslinker; Cit (citrulline) at 8) [SEQ ID NO: 1655] = 109 nM

// data source = patent US20180273587A1
